Data origin, for the record: the supplement of paper PMC11061612

Consider the following compounds; for each one, report its combination Emax.
# Test system: ASH-3 (Thyroid Gland Carcinoma)
# method: combination Emax (second highest fraction inhibited in the dose matrix, 72 h); higher = more inhibition; extreme values may be limits of the assay
Number only, no unit.

Query: Please look up its combination Emax: COc1nnc2ccc(N3CCC(c4ccc(OCCN5CCN(C)C(=O)[C@H]5C)cc4)CC3)nn12 [AZD5153] + CC1(C)CCC(CN2CCN(c3ccc(C(=O)NS(=O)(=O)c4ccc(NCC5CCOCC5)c([N+](=O)[O-])c4)c(Oc4cnc5[nH]ccc5c4)c3)CC2)=C(c2ccc(Cl)cc2)C1 [Venetoclax] (first compound max 1 µM, 7x7, partner max 1 µM)
Reply: 0.718

Query: Request: C[C@@H](c1ccc2nccn2c1)n1nnc2ncc(-c3cnn(C)c3)nc21 [Savolitinib] + CN(CC[C@H](CSC1=CC=CC=C1)NC2=C(C=C(C=C2)S(=O)(=O)NC(=O)C3=CC=C(C=C3)N4CCC(CC4)[C@H](C5=CC=CC=C5C6=CC=C(C=C6)Cl)O)S(=O)(=O)C(F)(F)F)CCO [AZD4320] (first compound max 1 µM, 7x7, partner max 1 µM)
Reply: 0.463

Query: Also, Cn1cnc2c(F)c(Nc3ccc(Br)cc3Cl)c(C(=O)NOCCO)cc21 [Selumetinib] + CCN(CCO)CCCOc1ccc2c(Nc3cc(CC(=O)Nc4cccc(F)c4)[nH]n3)ncnc2c1 [AZD2811] (first compound max 10 µM, 7x7, partner max 1 µM) please.
Reply: 0.391
